Data provenance is the NIST ThermoML archive (doi:10.1016/j.jct.2018.01.003).

Assay: activity coefficient (dimensionless); of the first substance listed, at infinite dilution; xn = mol fraction of the nth substance listed
Conditions: 338.15 K; 101.33 kPa; Liquid; Chromatography; x1 = 0
reportedMetric: activity coefficient

Guide cases for activity coefficient, answers given:
C=CCCCC [hex-1-ene] + CCCCCCCCCCCCCC[P+](CCCCCC)(CCCCCC)CCCCCC.N#CC(=C=[N-])C#N | 1.42
Cc1ccccc1 [toluene] + CCCCCCCCCCCCCC[P+](CCCCCC)(CCCCCC)CCCCCC.N#CC(=C=[N-])C#N | 0.585
C=CCCCCC [1-heptene] + CCCCCCCCCCCCCC[P+](CCCCCC)(CCCCCC)CCCCCC.N#CC(=C=[N-])C#N | 1.6

(A) O [water] + CCCCCCCCCCCCCC[P+](CCCCCC)(CCCCCC)CCCCCC.N#CC(=C=[N-])C#N
(B) CCC(C)O (stereo not drawn) [butan-2-ol] + CCCCCCCCCCCCCC[P+](CCCCCC)(CCCCCC)CCCCCC.N#CC(=C=[N-])C#N
(C) CCC(C)(C)OC [2-methoxy-2-methylbutane] + CCCCCCCCCCCCCC[P+](CCCCCC)(CCCCCC)CCCCCC.N#CC(=C=[N-])C#N
(D) CCc1ccccc1 [ethylbenzene] + CCCCCCCCCCCCCC[P+](CCCCCC)(CCCCCC)CCCCCC.N#CC(=C=[N-])C#N
Order the 4 compounds from highest to lowest activity coefficient. Give the labels in the order requested.
A, C, D, B
(A: 1.77, C: 1.06, D: 0.729, B: 0.468)

====

Assay: activity coefficient (dimensionless); of the first substance listed, at infinite dilution; xn = mol fraction of the nth substance listed
Details: 338.15 K; 101.33 kPa; Liquid; Chromatography; x1 = 0
reportedMetric: activity coefficient

// below: answered compounds
CCC(=O)OC [methyl propanoate] + CCCCCCCCCCCCCC[P+](CCCCCC)(CCCCCC)CCCCCC.N#CC(=C=[N-])C#N | 0.641
C#CCCCCCC [1-octyne] + CCCCCCCCCCCCCC[P+](CCCCCC)(CCCCCC)CCCCCC.N#CC(=C=[N-])C#N | 1.11
CC(C)CO [2-methyl-1-propanol] + CCCCCCCCCCCCCC[P+](CCCCCC)(CCCCCC)CCCCCC.N#CC(=C=[N-])C#N | 0.418

(a) C1COCCO1 [1,4-dioxane] + CCCCCCCCCCCCCC[P+](CCCCCC)(CCCCCC)CCCCCC.N#CC(=C=[N-])C#N
(b) CCCOCCC [dipropyl ether] + CCCCCCCCCCCCCC[P+](CCCCCC)(CCCCCC)CCCCCC.N#CC(=C=[N-])C#N
(c) CCCCCCCCCC [decane] + CCCCCCCCCCCCCC[P+](CCCCCC)(CCCCCC)CCCCCC.N#CC(=C=[N-])C#N
(d) C1CCOC1 [tetrahydrofuran] + CCCCCCCCCCCCCC[P+](CCCCCC)(CCCCCC)CCCCCC.N#CC(=C=[N-])C#N
Rank by activity coefficient (largest to smallest). Rank the items, then write their labels in that order.
c, b, a, d

====

Experiment: activity coefficient (dimensionless); of the first substance listed, at infinite dilution; xn = mol fraction of the nth substance listed
Conditions: 328.15 K; 101.33 kPa; Liquid; Chromatography; x1 = 0
reportedMetric: activity coefficient

Field: example entries. Status: answers known.
C#CCCCCCC [1-octyne] + CCCCCCCCCCCCCC[P+](CCCCCC)(CCCCCC)CCCCCC.N#CC(=C=[N-])C#N | 1.06
C=CCCCCCCCC [1-decene] + CCCCCCCCCCCCCC[P+](CCCCCC)(CCCCCC)CCCCCC.N#CC(=C=[N-])C#N | 2.32
CC(C)=O [acetone] + CCCCCCCCCCCCCC[P+](CCCCCC)(CCCCCC)CCCCCC.N#CC(=C=[N-])C#N | 0.454

(I) CCC(C)CC [3-methylpentane] + CCCCCCCCCCCCCC[P+](CCCCCC)(CCCCCC)CCCCCC.N#CC(=C=[N-])C#N
(II) C1=CCCCC1 [cyclohexene] + CCCCCCCCCCCCCC[P+](CCCCCC)(CCCCCC)CCCCCC.N#CC(=C=[N-])C#N
(III) CCCCCCCCCC [decane] + CCCCCCCCCCCCCC[P+](CCCCCC)(CCCCCC)CCCCCC.N#CC(=C=[N-])C#N
Ascending by activity coefficient, please. Answer by naming the labels in the order asked.
II, I, III
